- SYSTEM_UNDER_TEST: recombinant IL4I1 (Homo sapiens)
- Construct: purchased R&D Systems 5684-AO-020
- Sequence (Q96RQ9 22-567): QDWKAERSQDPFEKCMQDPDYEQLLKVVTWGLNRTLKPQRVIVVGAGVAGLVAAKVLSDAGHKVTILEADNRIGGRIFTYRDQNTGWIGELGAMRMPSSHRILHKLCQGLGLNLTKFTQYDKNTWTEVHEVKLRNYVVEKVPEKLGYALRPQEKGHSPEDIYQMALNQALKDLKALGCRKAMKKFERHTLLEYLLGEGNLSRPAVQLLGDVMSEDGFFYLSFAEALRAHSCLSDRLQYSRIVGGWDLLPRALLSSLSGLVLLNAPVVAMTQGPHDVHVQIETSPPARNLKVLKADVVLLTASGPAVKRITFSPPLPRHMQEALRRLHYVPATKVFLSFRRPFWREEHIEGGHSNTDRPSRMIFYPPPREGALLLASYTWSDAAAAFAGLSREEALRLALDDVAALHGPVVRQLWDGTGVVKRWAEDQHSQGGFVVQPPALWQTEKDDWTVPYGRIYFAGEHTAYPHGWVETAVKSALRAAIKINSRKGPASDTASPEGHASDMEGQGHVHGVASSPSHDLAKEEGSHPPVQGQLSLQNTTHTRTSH
- PROTOCOL_SUMMARY: IL4I1 Enzymatic Assay (Amplex Red/HRP coupled H2O2 detection)
- Assay type: biochemical
- CONDITION_NOTES: 240 min; four-hour pre-incubation with compound; 1 nM IL4I1, 1 mM each Phe/Tyr/Trp; ten-point titration; fluorescence readout; read-out: Potency EC50 (nM) (240 min)
With a cut-off of 10 nM, any EC50 strictly below it is called satisfied; any EC50 meeting it or above is called not satisfied.

>  <COMPOUND>
CN(Cc1ccc(Cn2c(=O)[nH]c3ccccc32)cc1)S(C)(=O)=O

>  <ASSIGNED_LABEL>
satisfied

$$$$
>  <COMPOUND>
CC(C1CCCCC1)n1c(=O)[nH]c2ccccc21 (stereo not drawn)

>  <ASSIGNED_LABEL>
not satisfied

$$$$
>  <COMPOUND>
Cn1cnnc1Cc1ccc(Cn2c(=O)[nH]c3ccccc32)cc1

>  <ASSIGNED_LABEL>
not satisfied

$$$$
>  <COMPOUND>
O=c1[nH]c2c(F)cccc2n1Cc1ccccc1

>  <ASSIGNED_LABEL>
not satisfied

$$$$
>  <COMPOUND>
Cc1cc(C)cc(Cn2c(=O)[nH]c3ccccc32)c1

>  <ASSIGNED_LABEL>
satisfied

$$$$
>  <COMPOUND>
CC(=O)NCc1ccc(Cn2c(=O)[nH]c3ccc(C)cc32)cc1

>  <ASSIGNED_LABEL>
not satisfied

$$$$
>  <COMPOUND>
COC1(C(=O)NCc2ccc(Cn3c(=O)[nH]c4ccccc43)cc2)CC1

>  <ASSIGNED_LABEL>
not satisfied

$$$$
>  <COMPOUND>
O=C1CCCN1Cc1c(F)cc(Cn2c(=O)[nH]c3ccccc32)cc1F

>  <ASSIGNED_LABEL>
not satisfied

$$$$
>  <COMPOUND>
Cc1cc(Cn2c(=O)[nH]c3ccccc32)ccc1Cc1nnco1

>  <ASSIGNED_LABEL>
satisfied

$$$$

----------
- SYSTEM_UNDER_TEST: recombinant IL4I1 (Homo sapiens)
- Construct: purchased R&D Systems 5684-AO-020
- PROTOCOL_SUMMARY: IL4I1 Enzymatic Assay (Amplex Red/HRP coupled H2O2 detection)
- Format: biochemical
- CONDITION_NOTES: 240 min; four-hour pre-incubation with compound; 1 nM IL4I1, 1 mM each Phe/Tyr/Trp; ten-point titration; fluorescence readout; read-out: Potency EC50 (nM) (240 min)
// reported EC50 per item
READOUT: EC50

>  <COMPOUND>
O=c1[nH]c2cc(F)c(F)cc2n1Cc1ccccc1 [Example 69]

>  <VALUE>
2270 nM

$$$$
>  <COMPOUND>
O=c1[nH]c2ccccc2n1Cc1ccc2c(c1)S(=O)(=O)CC2 [Example 28]

>  <VALUE>
33 nM

$$$$
>  <COMPOUND>
O=C1CCCN1Cc1ccc(Cn2c(=O)[nH]c3ccccc32)cc1I [Example 19]

>  <VALUE>
14 nM

$$$$
>  <COMPOUND>
CC(=O)N[C@H]1CC[C@H](Cn2c(=O)[nH]c3ccccc32)CC1 [Example 99]

>  <VALUE>
2690 nM

$$$$
>  <COMPOUND>
O=C1CCCN1Cc1ccc(Cn2c(=O)[nH]c3ccc(F)cc32)cc1 (single isomer, unassigned) [Example 84]

>  <VALUE>
10 nM

$$$$
>  <COMPOUND>
CC(=O)NCc1sc(Cn2c(=O)[nH]c3ccccc32)cc1Cl [Example 38]

>  <VALUE>
6 nM

$$$$
>  <COMPOUND>
CNC(=O)c1cccc(Cn2c(=O)[nH]c3ccccc32)c1 [Example 29]

>  <VALUE>
5 nM

$$$$
>  <COMPOUND>
CN(C)C(=O)Cc1ccc(Cn2c(=O)[nH]c3ccc(F)cc32)cc1 [Example 66]

>  <VALUE>
16 nM

$$$$
>  <COMPOUND>
CC1NC(=O)c2cc(Cn3c(=O)[nH]c4ccccc43)ccc21 (stereo not shown) [Example 33]

>  <VALUE>
15 nM

$$$$
>  <COMPOUND>
N#Cc1cccc(NC(=O)Cc2cccc(Cn3c(=O)[nH]c4ccccc43)c2)c1 [Example 104]

>  <VALUE>
5 nM

$$$$
>  <COMPOUND>
C[C@H]1COC(=O)N1Cc1ccc(Cn2c(=O)[nH]c3ccccc32)cc1 [Example 83]

>  <VALUE>
13 nM

$$$$
>  <COMPOUND>
CC(=O)N[C@H](C)c1ccc(Cn2c(=O)[nH]c3ccccc32)cc1 [Example 15]

>  <VALUE>
19 nM

$$$$
>  <COMPOUND>
CC(=O)NCc1sc(Cn2c(=O)[nH]c3ccccc32)cc1C [Example 40]

>  <VALUE>
7 nM

$$$$
>  <COMPOUND>
Cn1c(=O)n(Cc2cccc(OC(F)(F)F)c2)c2ccccc21 [Example 89]

>  <VALUE>
29 nM

$$$$
>  <COMPOUND>
N#CC1(c2cccc(Cn3c(=O)[nH]c4ccccc43)c2)CC1 [Example 35]

>  <VALUE>
2 nM

$$$$
>  <COMPOUND>
O=c1[nH]c2ccccc2n1Cc1cccc(-c2nnco2)c1 [Example 27]

>  <VALUE>
7 nM

$$$$
>  <COMPOUND>
O=C(Cc1cccc(Cn2c(=O)[nH]c3ccccc32)c1)Nc1cccnc1 [Example 103]

>  <VALUE>
4 nM

$$$$
>  <COMPOUND>
N#CC1(Cc2ncc(Cn3c(=O)[nH]c4ccccc43)cc2Cl)CCC1 [Example 79]

>  <VALUE>
113 nM

$$$$
>  <COMPOUND>
O=C1CCCN1Cc1ccc(Cn2c(=O)[nH]c3ccccc32)cc1 [Example 1]

>  <VALUE>
13 nM

$$$$
>  <COMPOUND>
COc1cccc(Cn2c(=O)n(C)c3cc(Cl)ccc32)c1 [Example 90]

>  <VALUE>
227 nM

$$$$
>  <COMPOUND>
O=c1[nH]c2ccccc2n1CC1CCCOC1 (stereo not shown) [Example 59]

>  <VALUE>
2930 nM

$$$$
>  <COMPOUND>
O=c1[nH]c2ccc(F)cc2n1Cc1ccc2c(c1)CCC2 [Example 70]

>  <VALUE>
14 nM

$$$$
>  <COMPOUND>
O=c1[nH]c2ccccc2n1Cc1ccc2c(c1)CCN2 [Example 52]

>  <VALUE>
18 nM

$$$$
>  <COMPOUND>
CC(C)Oc1cccc(Cn2c(=O)[nH]c3ccccc32)c1 [Example 71]

>  <VALUE>
45 nM

$$$$
>  <COMPOUND>
COc1cc(CNC(C)=O)ccc1Cn1c(=O)[nH]c2ccccc21 [Example 5]

>  <VALUE>
15 nM

$$$$
>  <COMPOUND>
CNC(=O)Cc1ccc(Cn2c(=O)[nH]c3ccc(F)cc32)cc1 [Example 67]

>  <VALUE>
9 nM

$$$$
>  <COMPOUND>
CN(C)C(=O)Cc1cccc(Cn2c(=O)[nH]c3ccccc32)c1 [Example 105]

>  <VALUE>
10 nM

$$$$
>  <COMPOUND>
O=c1[nH]c2ccccc2n1C[C@@H]1C[C@H]1c1ccccc1 [Example 61]

>  <VALUE>
8 nM

$$$$
